Value source: the supplement of paper PMC11208160

I'd appreciate it if you could supply recombinant barcode read abundance (log10) values for the items below.
# testSummary: recombinant barcode read abundance after kanamycin selection (control-corrected) (log10(CPM+1)); higher = more efficient recombination; sequences stand for … in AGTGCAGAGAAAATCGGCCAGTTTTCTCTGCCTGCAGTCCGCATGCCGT…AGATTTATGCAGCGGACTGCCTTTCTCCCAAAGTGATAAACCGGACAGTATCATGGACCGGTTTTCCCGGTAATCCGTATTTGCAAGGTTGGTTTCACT; site = the 11-nt target;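 note: IS621 recombinase and bridge RNA in Escherichia coli cells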
// response body must contain only the number

Request: Name the recorded recombinant barcode read abundance (log10) of the item GTCCAGGCTTGGGTTCTAACCTGTTGCGG (site GACCAGTCTCC) in your answer.
Result: 0.421

Request: Name the recorded recombinant barcode read abundance (log10) of the item AGCAGAGCTTGGGTTCTAACCTGTTGCAG (site AGCAGAGCTCG) in your answer.
Result: 0.505

Request: Name the recorded recombinant barcode read abundance (log10) of the item TAAATCACTTGGGTTCTAACCTGTTGCCG (site ACGTATGCTAT) in your answer.
Result: 0.0241

Request: Name the recorded recombinant barcode read abundance (log10) of the item GCGTGAGCTTGGGTTCTAACCTGTTGCCT (site GCGTGAGCTAG) in your answer.
Result: 0.676

Request: Name the recorded recombinant barcode read abundance (log10) of the item GACCCTACTTGGGTTCTAACCTGTTGCCT (site CACCCTACTAG) in your answer.
Result: 0.375

Request: Name the recorded recombinant barcode read abundance (log10) of the item GAGACTCCTTGGGTTCTAACCTGTTGCTA (site GCGACTCCTTA) in your answer.
Result: 0.0503

Request: Name the recorded recombinant barcode read abundance (log10) of the item GCCGAGTCTTGGGTTCTAACCTGTTGCAC (site GCCGAGTCTGT) in your answer.
Result: 1.25

Request: Name the recorded recombinant barcode read abundance (log10) of the item CGCCATCCTTGGGTTCTAACCTGTTGCAT (site CGCCTTCCTAT) in your answer.
Result: 0.569

Request: Name the recorded recombinant barcode read abundance (log10) of the item CAAACTCCTTGGGTTCTAACCTGTTGCGT (site CAAACTCCTAC) in your answer.
Result: 0.951

Request: Name the recorded recombinant barcode read abundance (log10) of the item GTCGGAGCTTGGGTTCTAACCTGTTGCCA (site GTCGGAGCTTG) in your answer.
Result: 0.959

Request: Name the recorded recombinant barcode read abundance (log10) of the item TCCGTGTCTTGGGTTCTAACCTGTTGCCT (site TCCGTGCCTAG) in your answer.
Result: 0.241

Request: Name the recorded recombinant barcode read abundance (log10) of the item TCGCACACTTGGGTTCTAACCTGTTGCCT (site CCGCACACTAG) in your answer.
Result: 0.324

Request: Name the recorded recombinant barcode read abundance (log10) of the item GTGTAGGCTTGGGTTCTAACCTGTTGCAG (site GTGTAGTCTCG) in your answer.
Result: 0.0205

Request: Name the recorded recombinant barcode read abundance (log10) of the item GTTTGAGCTTGGGTTCTAACCTGTTGCCT (site GTTGGAGCTAG) in your answer.
Result: 0.05

Request: Name the recorded recombinant barcode read abundance (log10) of the item CATTCAACTTGGGTTCTAACCTGTTGCCG (site CATTCAACTAG) in your answer.
Result: 0.0546
